Experiment: Metabolic stability in rat liver microsomes assessed as compound remaining at 5 uM after 30 mins
Format: ADME, Microsome
Conditions: read-out: Stability
readout_name: remaining at 0.5 h, 5 µM

Answer with the recorded remaining at 0.5 h, 5 µM for the compound listed here: CC(C)c1ccc(S(=O)(=O)c2nnn3c2nc(NCc2cccs2)c2sccc23)cc1 < 5%

Kindly indicate its recorded remaining at 0.5 h, 5 µM. Item: O=S(=O)(c1cccs1)c1nnn2c1nc(NCc1cccs1)c1sccc12 < 5%

Given CCc1ccc(S(=O)(=O)c2nnn3c2nc(NCc2cccs2)c2sccc23)cc1 , respond with its remaining at 0.5 h, 5 µM. < 5%

Dear colleague, please send me the reported remaining at 0.5 h, 5 µM for CC(C)c1ccc(S(=O)(=O)c2nnn3c2nc(NCc2ccco2)c2sccc23)cc1 when you can. > 99%

Numbers sourced from ChEMBL document CHEMBL2163305.
